Entries and their IC50
testSystem: ERK1 (Homo sapiens)
Construct: purchased Jubilant Biosys
measurementProtocol: ERK1 HTRF (biochemical) assay
measurementSetup: HTRF

Examples with answers:
compound: Cc1cnc(NC2CCOCC2)nc1-n1cnc(C(=O)NC(CN)c2cccs2)c1 (stereo not shown)
measured: < 50 nM

compound: O=C(Nc1cnn(-c2nc(NC3CC3)ncc2F)c1)N[C@H](CO)c1cccc(Cl)c1
measured: < 50 nM

compound: COc1cc(N2CCN(C(C)=O)CC2)ccc1Nc1nccc(-n2cc(NC(=O)N[C@H](CO)c3cccc(Cl)c3)cn2)n1
measured: 50 to 100 nM

compound: O=C(NC(CO)c1ccccc1)c1ccn(-c2ccnc(Nc3ccc4c(c3)OCO4)c2)c1 (stereo not shown)
measured: < 50 nM

compound: Cc1cnc(Nc2ccc(F)cc2)cc1-n1ccc(C(=O)NC(CN)c2ccccc2)c1 (stereo not shown)
measured: < 50 nM

compound: Cc1cnc(NC2CCNC2)nc1-n1ccc(C(=O)N[C@H](CO)c2cccc(Cl)c2)c1 (stereo partly shown)
measured: < 50 nM

compound: Cc1cnc(Nc2ccc3c(c2)CCCO3)nc1-n1ccc(C(=O)NC(CO)c2ccccc2)c1 (stereo not shown)
measured: < 50 nM

compound: Cc1cnc(NC2CCOCC2)nc1-n1cnc(C(=O)NC(CO)c2cccc(C(C)(C)C)c2)c1 (stereo not shown)
measured: < 50 nM

Prompt line: Which IC50 value belongs to Cc1cnc(N[C@@H]2CCOC2)nc1-n1cnc(C(=O)N[C@H](CN)c2cccc(Cl)c2)c1 ?
Response line: < 50 nM

Prompt line: Fill in: IC50 of O=C(Nc1cnn(-c2ccnc(Nc3ccc4c(c3)OCO4)n2)c1)N[C@H](CO)c1cccc(Cl)c1 is ___
Response line: < 50 nM

Prompt line: Quick one: IC50 for Cc1cnc(Nc2ccc3c(c2)OCO3)nc1-n1cc(C(=O)NC(CO)c2cccc(Cl)c2)cn1 (stereo not shown) ?
Response line: 100 to 500 nM

Prompt line: For CCC(C)Nc1ncc(C)c(-n2ccc(C(=O)N[C@H](CO)c3ccc(F)c(Cl)c3)c2)n1 (stereo partly shown) , what is its reported IC50?
Response line: < 50 nM

Prompt line: Entry O=C(NC(CO)c1ccccc1)c1ccn(-c2ccnc(NC3CCOC3)c2)c1 (stereo not shown) has what IC50?
Response line: 100 to 500 nM

Prompt line: Suppose we examine the compound Cc1cnc(NC2CCS(=O)(=O)C2)nc1-n1cnc(C(=O)N[C@H](CO)c2cccc(Cl)c2)c1 (stereo partly shown) ; what IC50 value has been reported?
Response line: < 50 nM

Prompt line: Endpoint output: IC50 of Cc1cnc(NC2CCOCC2)nc1-n1cnc(C(=O)NCc2ccccc2CO)c1 . Value?
Response line: < 50 nM

Prompt line: # query: IC50 of entry CCC(COC)Nc1ncc(C)c(-n2ccc(C(=O)NC(CO)c3cccc(Cl)c3)c2)n1 (stereo not shown)
Response line: < 50 nM

---

valueType: melting point (°C)

compound: Cc1cnc(Nc2ccc(F)cc2)cc1-n1ccc(C(=O)NC(CN)c2cccc(Cl)c2)c1 (stereo not drawn) [Compound 159]
valueType: melting point
measured: 118.1
//
compound: Cc1cnc(Nc2ccc(F)cc2)cc1-n1cnc(C(=O)NC(CN)c2ccccc2)c1 (stereo not drawn) [Compound 191]
valueType: melting point
measured: 154.7
//
compound: Cc1cnc(NC2CCOCC2)nc1-n1cnc(C(=O)N[C@H](CO)c2cccc(Cl)c2)c1 [Compound 211]
valueType: melting point
measured: 145

1: O=C(NC(CO)c1cccc(Cl)c1)c1cn(-c2ccnc(Nc3ccccc3)c2)cn1 (stereo not drawn) [Compound 77]
2: Cc1cnc(Nc2ccc3c(c2)OCO3)nc1-n1cc(NC(=O)N[C@H](CO)c2ccccc2)cn1 [Compound 55]
Prompt line: Hi, I'm comparing 1 with 2 and wondering which one has the bigger number for melting point. Any idea? Use the label to indicate which entry you chose.
Response line: 2
(2: 208.3 °C, 1: 130 °C)

---

testSystem: ERK1 (Homo sapiens, UniProt P27361)
Construct: purchased Jubilant Biosys
Sequence (P27361 whole entry): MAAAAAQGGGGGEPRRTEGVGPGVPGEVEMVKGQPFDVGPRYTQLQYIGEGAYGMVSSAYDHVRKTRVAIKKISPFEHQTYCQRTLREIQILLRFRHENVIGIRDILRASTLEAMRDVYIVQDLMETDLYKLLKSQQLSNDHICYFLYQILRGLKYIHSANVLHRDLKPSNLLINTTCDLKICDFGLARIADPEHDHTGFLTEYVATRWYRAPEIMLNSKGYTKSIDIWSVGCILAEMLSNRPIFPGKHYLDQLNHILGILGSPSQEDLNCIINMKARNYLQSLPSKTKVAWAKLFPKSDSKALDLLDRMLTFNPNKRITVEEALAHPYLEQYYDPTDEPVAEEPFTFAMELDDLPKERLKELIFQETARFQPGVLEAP
measurementProtocol: ERK1 HTRF (biochemical) assay
measurementSetup: HTRF
Protocol: ERK1 and ERK2 HTRF (Biochemical) Assays These assays employed a homogeneous time resolved fluorescence (HTRF) technique. […] The plate was incubated at room temperature for 60 min with shaking. […] The IC50 values (half maximal inhibitory concentration values) were subsequently determined using a sigmoidal dose-response curve (variable slope) in GraphPad Prism® 5 software.
pIC50: −log10 of the molar value.
# pIC50 listing for each entry below

A selection of reference data follows.
compound: Cc1cnc(Nc2ccc3c(c2)OC(F)(F)O3)cc1-n1ccc(C(=O)NC(CO)c2cccc(Cl)c2)c1 (centres unmarked)
measured: > 7.30
--
compound: Cc1cnc(NC2CCOCC2)nc1-n1cnc(C(=O)NCc2sccc2CO)c1
measured: > 7.30
--
compound: Cc1cnc(Nc2ccc(F)cc2Cl)nc1-n1cnc(C(=O)NC(CN)c2cccc(Cl)c2)c1 (centres unmarked)
measured: > 7.30
--
compound: Cc1cnc(NC2CCOCC2)nc1-n1cnc(C(=O)N[C@@H](CN)c2cc(F)cc(Cl)c2)c1
measured: > 7.30

Prompt line: # value lookup — system ERK1 (Homo sapiens, UniProt P27361), readout pIC50, item Cc1cnc(Nc2ccc(C3CCNCC3)c(F)c2)nc1-n1ccc(C(=O)NC(CO)c2cccc(Cl)c2)c1 (centres unmarked)
Response line: > 7.30

---

Documented pIC50 across a set of compounds
testSystem: ERK1 (Homo sapiens)
Construct: purchased Jubilant Biosys
measurementProtocol: ERK1 HTRF (biochemical) assay
measurementSetup: HTRF biochemical assay
pIC50: −log10 of the molar value.

Known pIC50 results, listed for orientation:
compound: Cc1cnc(NC2CCOCC2)nc1-n1cnc(C(=O)NCc2cccc(Cl)c2CCO)c1
pIC50: > 7.30
--
compound: CNC[C@@H](NC(=O)c1cn(-c2nc(NC3CCOCC3)ncc2C)cn1)c1cccc(Cl)c1
pIC50: > 7.30
--
compound: Cc1cnc(N[C@H]2CCOC2)nc1-n1cnc(C(=O)NCc2cccc(C#N)c2)c1
pIC50: 6.30 to 7.00
--
compound: Cc1cnc(N[C@H]2CCOC2)nc1-n1cnc(C(=O)NCc2cc(Cl)cc(Cl)c2)c1
pIC50: > 7.30
--
compound: Cc1cnc(Nc2ccc(F)cc2Cl)nc1-n1cnc(C(=O)NCc2cccc(Cl)c2CO)c1
pIC50: > 7.30
--
compound: Cc1cnc(N[C@H]2CCOC2)nc1-n1cnc(C(=O)NCc2ccc(Cl)c(Cl)c2)c1
pIC50: > 7.30
--
compound: Cc1cnc(N[C@H]2CCOC2)nc1-n1cnc(C(=O)NCc2cccc(C(F)(F)F)c2)c1
pIC50: 7.00 to 7.30
--
compound: Cc1cnc(NC2CCOCC2)nc1-n1cnc(C(=O)NC(C(N)=O)c2cccc(Cl)c2)c1 (stereo not drawn)
pIC50: > 7.30

Prompt line: Which value of pIC50 has been reported for Cc1cnc(NC2CCOCC2)nc1-n1cnc(C(=O)N[C@H](CNCCO)c2cccc(Cl)c2)c1 in the records?
Response line: > 7.30

---

testSystem: ERK1 (Homo sapiens)
Construct: purchased Jubilant Biosys
measurementProtocol: ERK1 HTRF (biochemical) assay
measurementSetup: HTRF
Recorded IC50 values for a group of compounds are listed next.

Illustrative cases are given below, each with its answer.
compound: Cc1cnc(NC2CCOCC2)nc1-n1cnc(C(=O)N[C@]2(c3cccc(Cl)c3)C[C@H](O)C2)c1
IC50: < 50 nM
//
compound: Cc1cnc(Nc2ccc(F)cc2Cl)nc1-n1ccc(C(=O)N[C@H](CO)c2cccc(Cl)c2)c1 [Compound 57]
IC50: < 50 nM
//
compound: Cc1cnc(Nc2ccc3c(c2)OCO3)nc1-n1ccc(C(=O)N[C@H](CO)c2ccc(F)c(Cl)c2)c1
IC50: < 50 nM
//
compound: Cc1cnc(Nc2ccc3c(c2)OCO3)nc1-n1cc(NC(=O)N[C@@H](CO)c2cccc(Cl)c2)cn1
IC50: 100 to 500 nM
//
compound: O=C(Nc1cnn(-c2ccnc(N[C@H]3CC[C@H](O)CC3)n2)c1)N[C@H](CO)c1cccc(Cl)c1
IC50: 100 to 500 nM
//
compound: Cc1cnc(Nc2ccc(Oc3ccccc3)cc2)nc1-n1cnc(C(=O)NC(CN)c2cccc(Cl)c2)c1 (stereo not shown)
IC50: < 50 nM

Could you now look at the following compound, please?
Prompt line: Endpoint output: IC50 of O=C(N[C@H](CO)c1cccc(Cl)c1)c1ccn(-c2nc(NC3CCOCC3)ncc2F)c1 . Value?
Response line: < 50 nM

---

testSystem: ERK2 (Homo sapiens, UniProt P28482)
Construct: purchased Jubilant Biosys
Sequence (P28482 whole entry): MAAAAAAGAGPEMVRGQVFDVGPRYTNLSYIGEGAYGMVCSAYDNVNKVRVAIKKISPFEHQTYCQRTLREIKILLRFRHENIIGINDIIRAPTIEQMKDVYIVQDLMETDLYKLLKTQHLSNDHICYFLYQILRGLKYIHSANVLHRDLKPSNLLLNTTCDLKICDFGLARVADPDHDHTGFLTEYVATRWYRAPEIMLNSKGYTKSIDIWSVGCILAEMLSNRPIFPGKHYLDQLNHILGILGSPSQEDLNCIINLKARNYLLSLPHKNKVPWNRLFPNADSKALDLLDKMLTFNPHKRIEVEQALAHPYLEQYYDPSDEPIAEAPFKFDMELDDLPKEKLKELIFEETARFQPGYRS
measurementProtocol: ERK2 HTRF (biochemical) assay
measurementSetup: HTRF
pIC50: −log10 of the molar value.
valueType: pIC50

Would you please look over these solved cases?
compound: Cc1cnc(NC2CCOCC2)nc1-n1cnc(C(=O)NC(CN)c2ccc(Cl)s2)c1 (single isomer, unassigned; enantiomer #1) [Example 290]
pIC50: ≥ 7.30
--
compound: Cc1cnc(Nc2ccc3c(c2)OCO3)nc1-n1cnc(C(=O)N[C@H](CO)c2cccc(Cl)c2)c1 [Compound 48]
pIC50: ≥ 7.30

Prompt line: What value of pIC50 has been reported for the following compound? Cc1cnc(Nc2ccc(F)cc2)nc1-n1ccc(C(=O)N[C@H](CO)c2ccc(F)c(Cl)c2)c1 [Compound 125]
Response line: ≥ 7.30

Prompt line: Could you tell me which pIC50 is on file for Cc1cnc(Nc2ccc(F)cc2)cc1-n1cnc(C(=O)NC(CN)c2ccccc2)c1 (single isomer, unassigned) [Compound 228] ?
Response line: 6.30 to 7.00
